Recorded Maximum % activity for the following compounds
Biological target: F508delCFTR (Homo sapiens, UniProt P13569, DEL508-508)
Construct: expressed in transfected cells; host or cells: CFBE41o- (human lung derived epithelial cell line), doxycycline-inducible
Sequence (P13569 with tags, fused parts or gaps DEL508-508): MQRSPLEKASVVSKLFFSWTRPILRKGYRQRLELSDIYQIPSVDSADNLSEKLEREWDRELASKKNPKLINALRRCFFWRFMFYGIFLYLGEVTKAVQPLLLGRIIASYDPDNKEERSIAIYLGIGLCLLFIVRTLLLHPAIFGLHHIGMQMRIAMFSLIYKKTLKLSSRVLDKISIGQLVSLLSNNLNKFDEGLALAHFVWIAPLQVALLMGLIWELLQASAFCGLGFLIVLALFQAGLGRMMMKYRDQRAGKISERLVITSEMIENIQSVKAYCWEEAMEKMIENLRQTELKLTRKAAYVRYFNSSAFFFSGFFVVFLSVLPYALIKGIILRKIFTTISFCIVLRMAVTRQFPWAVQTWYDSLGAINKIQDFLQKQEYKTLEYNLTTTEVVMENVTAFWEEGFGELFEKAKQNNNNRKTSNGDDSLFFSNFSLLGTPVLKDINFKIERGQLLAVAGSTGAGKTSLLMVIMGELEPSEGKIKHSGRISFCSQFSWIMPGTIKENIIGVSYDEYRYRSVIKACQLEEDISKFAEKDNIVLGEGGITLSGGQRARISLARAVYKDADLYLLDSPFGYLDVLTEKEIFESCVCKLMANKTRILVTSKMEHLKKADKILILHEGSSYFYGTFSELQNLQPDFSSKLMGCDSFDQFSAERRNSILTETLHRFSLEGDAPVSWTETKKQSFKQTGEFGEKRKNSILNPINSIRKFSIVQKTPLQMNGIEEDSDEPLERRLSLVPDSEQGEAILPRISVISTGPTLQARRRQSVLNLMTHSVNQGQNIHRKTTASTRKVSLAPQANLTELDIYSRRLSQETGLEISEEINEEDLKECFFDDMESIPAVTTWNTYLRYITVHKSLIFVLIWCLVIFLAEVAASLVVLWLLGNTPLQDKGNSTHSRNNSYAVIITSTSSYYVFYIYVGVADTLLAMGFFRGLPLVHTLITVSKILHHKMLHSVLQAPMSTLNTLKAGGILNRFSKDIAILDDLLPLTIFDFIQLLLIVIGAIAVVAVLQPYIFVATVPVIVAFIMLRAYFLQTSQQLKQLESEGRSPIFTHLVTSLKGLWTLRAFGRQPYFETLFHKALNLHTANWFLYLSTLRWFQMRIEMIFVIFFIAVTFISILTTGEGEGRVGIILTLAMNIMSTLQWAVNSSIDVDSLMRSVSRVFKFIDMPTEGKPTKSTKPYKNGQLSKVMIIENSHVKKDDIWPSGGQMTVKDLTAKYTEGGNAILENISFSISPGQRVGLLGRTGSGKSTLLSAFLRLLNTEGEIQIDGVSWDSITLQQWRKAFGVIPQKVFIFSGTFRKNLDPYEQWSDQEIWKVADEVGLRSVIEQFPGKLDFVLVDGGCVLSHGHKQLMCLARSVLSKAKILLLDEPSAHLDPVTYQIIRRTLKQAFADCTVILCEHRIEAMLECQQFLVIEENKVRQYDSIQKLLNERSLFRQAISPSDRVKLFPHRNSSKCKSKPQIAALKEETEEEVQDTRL
Assay: Cell Surface Expression-Horse Radish Peroxidase (CSE-HRP) assay
Format: cell-based
Settings: CFBE41o-F508delCFTR-HRP cells; maximum at any tested concentration, normalized to on-plate positive control (3 μM)
Use % as the unit, but write only the number.

Here's what some known entries look like.
{"columns": ["compound", "Maximum % activity (%)"],
 "data": [
  ["COc1ccc2c(c1)O[C@@H](c1ccc(C(=O)O)cc1)C[C@H]2NC(=O)C1(c2ccccc2)CCC(F)(F)C1 (stereo partly shown)", "−0.2"],
  ["COc1ccc(C2(C(=O)N[C@@H]3C[C@H](c4ccc(C(=O)O)cc4)Oc4cc(OC)ccc43)CCC2)cc1", 69.8],
  ["COc1ccc2c(c1)CC[C@]2(C)C(=O)N[C@@H]1C[C@H](c2cccc(C(=O)O)c2)Oc2cc(OC)ccc21", 57.5]
]}

Here is the next item to consider.
Request the reported Maximum % activity associated with COc1ccc2c(c1)[C@@](C)(C(=O)N[C@@H]1C[C@H](c3cccc(C(=O)O)c3)Oc3ccccc31)CC2
38.2

====

Target: F508delCFTR (Homo sapiens, UniProt P13569, DEL508-508)
Construct: expressed in transfected cells; host or cells: CFBE41o- (human lung derived epithelial cell line), doxycycline-inducible
Experiment: Cell Surface Expression-Horse Radish Peroxidase (CSE-HRP) assay
Format: cell-based
Settings: CFBE41o-F508delCFTR-HRP cells; maximum at any tested concentration, normalized to on-plate positive control (3 μM)
Method: Cell Surface Expression-Horse Radish Peroxidase (CSE-HRP) Assay: A cellular assay for measuring the F508delCFTR cell surface expression after correction with test compounds was developed in human lung derived epithelial cell line (CFBE41o-) (Veit G et al, (2012) Mol Biol Cell. 23(21): 4188-4202). […] The raw counts from the experiment are analyzed using Accelrys® Assay Explorer v3.3. […]
measurement.kind: Maximum % activity (%)
Use % as the unit, but write only the number.

{"columns": ["compound", "target.system", "unit.of.measure", "Maximum % activity"],
 "data": [
  ["COc1ccc2c(c1)O[C@@H](c1ccc(C(=O)O)cc1)C[C@H]2NC(=O)C1(c2ccccc2Br)CC1 [Example 89]", "F508delCFTR (Homo sapiens, UniProt P13569, DEL508-508)", "%", 42.0],
  ["COc1ccc2c(c1)O[C@@H](c1ccc(C(=O)O)cc1)C[C@H]2NC(=O)C1(c2ccccc2F)CCCC1 [Example 91]", "F508delCFTR (Homo sapiens, UniProt P13569, DEL508-508)", "%", 5.0],
  ["COc1ccc2c(c1)O[C@@H](c1ccc(C(=O)O)cc1)C[C@H]2NC(=O)C(C)(C)Oc1ccc(Cl)cc1 [Example 119]", "F508delCFTR (Homo sapiens, UniProt P13569, DEL508-508)", "%", 27.4],
  ["COc1ccc2c(c1)O[C@@H](c1ccc(C(=O)O)cc1)C[C@H]2NC(=O)C1(c2ccc(Br)cc2)CC1 [Example 4]", "F508delCFTR (Homo sapiens, UniProt P13569, DEL508-508)", "%", 94.2],
  ["COc1ccc2c(c1)O[C@@H](c1ccc(C(=O)O)cc1)C[C@H]2NC(=O)C1(c2cccc(Cl)c2)CC1 [Example 101]", "F508delCFTR (Homo sapiens, UniProt P13569, DEL508-508)", "%", 46.0]
]}

Please look up its Maximum % activity: COc1ccc2c(c1)O[C@@H](c1ccc(C(=O)O)cc1)C[C@H]2NC(=O)C(C)(C)c1ccc(Cl)cc1 [Example 110]
85.0

Return reported Maximum % activity; argument: COC(=O)c1ccc([C@H]2C[C@@H](NC(=O)C3(C)CCc4cc(C)ccc43)c3ccc(OC)cc3O2)cc1 (stereo partly shown) [Example 124]
87.7

Report Maximum % activity for COc1ccc(C(C)(C)C(=O)N[C@@H]2C[C@H](c3ccc(C(=O)O)cc3)Oc3cc(OC)ccc32)c(F)c1 [Example 117] please.
47.0

Entry COc1ccc2c(c1)O[C@@H](c1ccc(C(=O)O)cc1)C[C@H]2NC(=O)C1(c2cccc(Br)c2)CC1 [Example 88] has what Maximum % activity?
44.0

Fill in the blank: the reported Maximum % activity of COc1ccc2c(c1)O[C@@H](c1ccc(C(=O)O)cc1)C[C@H]2NC(=O)C1(c2ccc(F)c(F)c2)CCC1 [Example 81] is ____.
32.0

Look up Maximum % activity: CC(C)(C(=O)N[C@@H]1C[C@H](c2cccc(C(=O)O)c2)Oc2ccccc21)c1ccc(Cl)cc1Cl [Example 52]
1.8
